Entry source: paper PMC3901395

Biological target: linear di-SUMO2 (2×SUMO2-ΔN11), P61956
Sequence (P61956 other isoform, or with tags, fused parts or gaps mutant): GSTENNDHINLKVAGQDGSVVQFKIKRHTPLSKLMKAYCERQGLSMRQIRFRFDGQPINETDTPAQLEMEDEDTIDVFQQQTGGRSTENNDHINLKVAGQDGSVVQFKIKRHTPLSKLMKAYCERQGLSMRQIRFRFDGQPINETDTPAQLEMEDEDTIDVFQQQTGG
Experiment: ITC (calorimetric titration)
Conditions: chain shown with the change
pKd: −log10 of the molar value.
measured_attribute: pKd

a: RNF4 1–125 (RNF4-SIM domain, wt), P78317 SIM1/2mut (protein) MSTRKRRGGAINSRQAQKRTREATSTPEISLEAEPAAAAETAGDEIAAAACESLEPVVVDLTHNDSVVIVDERRRPRRNARRLPQDHADSCVVSSDDEELSRDRDVYVTTHTPRNARDEGATGLR
b: RNF4 1–125 (RNF4-SIM domain, wt), P78317 SIM3mut (protein) MSTRKRRGGAINSRQAQKRTREATSTPEISLEAEPIELVETAGDEIVDLTCESLEPVVAAAAHNDSVVIVDERRRPRRNARRLPQDHADSCVVSSDDEELSRDRDVYVTTHTPRNARDEGATGLR
Query: // pick larger pKd from pair: a vs b API: response body contains the label of the selected item.
Response: a
